experimentalDetails: NCI Yeast Anticancer Drug Screen. Data for the rad50 strain (AID 155);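 also: 0% = growth of vehicle-only cultures of the same strain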
statedConditions: S. cerevisiae rad50 strain growth inhibition; at 50.0 µM; hits give high values
Experimental: Growth inhibition of yeast strains with defined genetic alterations is measured as a screen for potential anti-cancer activity. Selected strains with alterations in DNA damage repair or cell cycle control were exposed to compounds and growth inhibition was measured relative to vehicle treated controls. The strain used in this assay is rad50
Compounds without any hit were thinned out: in the full panel of roughly 79,000, 15% have a hit. Where a SMILES comes first, the peptide text is derived from it. The star is where a group is joined. Boc = CC(C)(C)OC(=O)*

{"compound": "CCOC(=O)Nc1ccc(C2SCCN2C(=O)Nc2ccc(Cl)cc2)cc1 (stereo not given)", "unitAbbreviation": "%", "growth inhibition": -9.5}
{"compound": "CC(C)C(NC(=O)OC(C)(C)C)C(=O)N1CCCC1C(=O)O (stereo not drawn) (Boc-Val-Pro-OH; configuration not given here)", "unitAbbreviation": "%", "growth inhibition": 11.8}
{"compound": "CS(=O)(=O)N1COC(=O)[C@@H]1c1ccccc1", "unitAbbreviation": "%", "growth inhibition": 1.25}
{"compound": "CC1(C(O)(c2ccccc2)c2ccccc2)CC1(c1ccccc1)c1ccccc1 (stereo not given)", "unitAbbreviation": "%", "growth inhibition": -21.4}
{"compound": "O=[N+]([O-])c1ccc(CN2CCC(C(=S)Nc3ccccc3)=C2c2ccccc2)cc1", "unitAbbreviation": "%", "growth inhibition": 9.6}

----------
experimentalDetails: NCI Yeast Anticancer Drug Screen. Data for the mlh1 rad18 strain (AID 175)
statedConditions: S. cerevisiae mlh1 rad18 strain growth inhibition; at 50.0 µM; hits give high values
Compounds without any hit were thinned out: in the full panel of roughly 79,000, 15% have a hit.
Catalogue of growth inhibition readings, one per entry.

{"smilesData": "CSc1ccc2c(cc1=O)[C@@H](NC(C)=O)CCc1cc(O)c(O)c(O)c1-2", "growth inhibition [%]": 22.8}
{"smilesData": "CN(C)c1ccc(C2N(C)CCN2C)cc1", "growth inhibition [%]": -12.8}
{"smilesData": "COc1ccc(C(=O)N/N=C/c2ccccc2Cl)cc1", "growth inhibition [%]": 18.4}
{"smilesData": "CCCCCCCCCCCCCCCCCC(=O)N/N=C/c1cc(OC)ccc1OC", "growth inhibition [%]": -28.9}
{"smilesData": "O=C(O)CSC1=NNC2(C(=O)N1)c1ccccc1-c1ccccc12", "growth inhibition [%]": 24.1}
{"smilesData": "O=C(NC12OC3CC(CC(C3)O1)O2)NC12OC3CC(CC(C3)O1)O2", "growth inhibition [%]": 2.2}

----------
experimentalDetails: NCI Yeast Anticancer Drug Screen. Data for the mlh1 rad18 strain (AID 175)
statedConditions: S. cerevisiae mlh1 rad18 strain growth inhibition; at 50.0 µM; hits give high values
The panel holds about 79,000 compounds, 15% with a hit somewhere; the sample as a whole holds those more often. Activity calls are given as the source filed them. No stated cut-off is given here; in the data, active means growth inhibition above about 70%; inactive means the rest.
Attribute: growth inhibition

{"molecule": "C=CCOC(=O)CC(O)(CC(=O)OCC=C)C(=O)OCC=C", "growth inhibition": "-12.2% (inactive)"}
{"molecule": "NC(=O)Nc1ccc([N+](=O)[O-])cc1", "growth inhibition": "2.05% (inactive)"}
{"molecule": "COC1=CC(=O)c2ccc3ccccc3c2C1=O", "growth inhibition": "86.5% (active)"}
{"molecule": "Nc1ccc(NC(=S)Nc2ccccc2)cc1", "growth inhibition": "-12.7% (inactive)"}
{"molecule": "Cc1ccc(C(O)/C(=N/N)c2nc3ccc([N+](=O)[O-])cc3[nH]c2=O)cc1 (centres undefined)", "growth inhibition": "-12.1% (inactive)"}
{"molecule": "O=C(NCCCCNCCCNC(=O)c1ccc([N+](=O)[O-])cc1)c1ccc([N+](=O)[O-])cc1", "growth inhibition": "-11.4% (inactive)"}
{"molecule": "CC1(C)OC(=O)C=C([O-])O1.CC1(C)OC(=O)C=C([O-])O1.CC[O-].CC[O-].[Ti+4]", "growth inhibition": "-3.15% (inactive)"}
{"molecule": "Cc1ccc(Cl)cc1NS(=O)(=O)c1ccccc1", "growth inhibition": "5.55% (inactive)"}
{"molecule": "CCc1cccc(C)c1NC(=O)C(=O)CC(=O)CCCO", "growth inhibition": "25.4% (inactive)"}
{"molecule": "CCN(CC)Cc1cc(Oc2ccc(O)c(CN(CC)CC)c2)ccc1O", "growth inhibition": "-4.4% (inactive)"}
{"molecule": "CCCCCCC1(C=O)NC(=O)NC1=O (centres undefined)", "growth inhibition": "-1.35% (inactive)"}
{"molecule": "C[CH2][Sn]([CH2]C)([n]1c2ccccc2c2c(C)c3cnccc3c(C)c21)[n]1c2ccccc2c2c(C)c3cnccc3c(C)c21", "growth inhibition": "71.3% (active)"}
{"molecule": "O=CNCCNC=O", "growth inhibition": "-1.85% (inactive)"}
{"molecule": "O=C(Oc1ccccc1)N1CCCSC1=S", "growth inhibition": "51.2% (inactive)"}
{"molecule": "O=S(CC(O)(c1ccccc1)c1ccccc1)c1ccccc1 (centres undefined)", "growth inhibition": "23.5% (inactive)"}
{"molecule": "Cc1sc2nc3n(c(=O)c2c1C)N=CN(c1ccc(F)cc1)C3", "growth inhibition": "-32.6% (inactive)"}
{"molecule": "NC(CCCC(N)C(=O)c1ccccc1)C(=O)c1ccccc1 (centres undefined)", "growth inhibition": "3.35% (inactive)"}
{"molecule": "O=C1c2ccccc2C(=O)N1c1ccccc1Cl", "growth inhibition": "19.7% (inactive)"}
{"molecule": "N/N=C(/Cc1ccccc1)NNO", "growth inhibition": "22.2% (inactive)"}
{"molecule": "O=C(/C=N\\O)c1ccncc1", "growth inhibition": "-35.7% (inactive)"}
{"molecule": "COC(=O)C1(Cc2ccc3c(c2)CCC3)Cc2cc3c(cc2C1)CCC3", "growth inhibition": "-21.6% (inactive)"}
{"molecule": "C(=NCc1ccccc1)c1ccccc1-c1ccccc1C=NCc1ccccc1", "growth inhibition": "98.1% (active)"}
{"molecule": "O=C(O)/C=C/C(=O)Nc1ccc(Cl)cc1C(=O)c1ccccc1", "growth inhibition": "20.8% (inactive)"}
{"molecule": "CC(C)CN(CC(C)C)C(=S)[S-].CC(C)CN(CC(C)C)C(=S)[S-].[Zn]", "growth inhibition": "32.4% (inactive)"}

----------
Listed here are compounds together with their documented growth inhibition.
experimentalDetails: NCI Yeast Anticancer Drug Screen. Data for the bub3 strain (AID 167)
statedConditions: S. cerevisiae bub3 mutant strain, at 50.0 µM, hits give high values
Compounds without any hit were thinned out: in the full panel of roughly 79,000, 15% have a hit. Where a SMILES comes first, the peptide text is derived from it. The star is where a group is joined. Boc = CC(C)(C)OC(=O)*; NHNH2 = NN*

{"compound": "NCCCN=c1ccc2c3c1c(O)c1c(O)ccc(=O)c1c3[nH]n2CCNCCO", "growth inhibition [%]": 28.6}
{"compound": "O=c1oc(=O)c2ccccc2c2ccccc12", "growth inhibition [%]": -3.75}
{"compound": "CC(C)CCCC(C)C1CCC2C3CC=C4CC(OP(=O)(O)OC5CCC6(C)C(=CCC7C6CCC6(C)C(C(C)CCCC(C)C)CCC76)C5)CCC4(C)C3CCC12C (centres undefined)", "growth inhibition [%]": -7.6}
{"compound": "C/C(=N\\NC(=O)c1ccncc1)c1ccccc1Cl", "growth inhibition [%]": -75.8}
{"compound": "O=C(NCO)NCOCn1c(=O)n(CO)c(=O)n(CO)c1=O", "growth inhibition [%]": 9.7}
{"compound": "O=C1NC(Cc2ccccc2)C(=O)N2CCCC12 (centres undefined)", "growth inhibition [%]": -1.15}
{"compound": "COc1ccc(OC)c(C(C)=O)c1", "growth inhibition [%]": -34.2}
{"compound": "COC(=O)C(C(=O)C(=O)Nc1ccc(C)cc1)c1nc2ccc([N+](=O)[O-])cc2[nH]c1=O (centres undefined)", "growth inhibition [%]": 22.2}
{"compound": "Nc1ncnc2c1sc(=S)n2-c1ccccc1", "growth inhibition [%]": -12.7}
{"compound": "COC(=O)C(/C(=N/N)C(=O)Nc1cccc(O)c1)c1nc2ccccc2[nH]c1=O (centres undefined)", "growth inhibition [%]": -39.1}
{"compound": "CCN=C1SCCCS1", "growth inhibition [%]": -15.9}
{"compound": "CNC(=O)C1CCC(CC2CCCCC2)CC1 (centres undefined)", "growth inhibition [%]": 42.8}
{"compound": "COc1ccc2[nH]c(=O)oc(=O)c2c1", "growth inhibition [%]": -16.4}
{"compound": "CC(C)(CN)C(=O)O", "growth inhibition [%]": -0.3}
{"compound": "O=C1C2CCSCN2C(=O)N1c1ccccc1 (centres undefined)", "growth inhibition [%]": -1.15}
{"compound": "Cc1ccc(C2(c3ccc(C)cc3)OCC(C)(CBr)CO2)cc1", "growth inhibition [%]": 1.6}
{"compound": "O=C(NC1CCCCC1)N(C1CCCCC1)C1CCCCC1", "growth inhibition [%]": 23.9}
{"compound": "Cc1ccc(S(=O)(=O)NCCCN(CCCNS(=O)(=O)c2ccc(C)cc2)S(=O)(=O)c2ccc(C)cc2)cc1", "growth inhibition [%]": -19.4}
{"compound": "COC(=O)c1ccccc1OC(C)=O", "growth inhibition [%]": 1.5}
{"compound": "COC1=CC(=O)C2CC=C(C)CC2(C)C1=O (centres undefined)", "growth inhibition [%]": -0.05}
{"compound": "CN(C)Cc1cc(N=Nc2ccccc2Cl)cc(CN(C)C)c1O", "growth inhibition [%]": 12.3}
{"compound": "CC1(C)CCCC2(C)C(C(=O)O)C3CCC45OC3(CC12)OC(=O)C4C1(C)CCCC(C)(C)C1CC5=O (centres undefined)", "growth inhibition [%]": -2.1}
{"compound": "COc1cccc(CCO)c1OC", "growth inhibition [%]": 5.2}
{"compound": "CCC(C)C(NC(=O)C(Cc1c[nH]c2ccccc12)NC(=O)OC(C)(C)C)C(=O)NN (stereo not drawn) (Boc-Trp-Ile-NHNH2; configuration not given here)", "growth inhibition [%]": -4.35}
{"compound": "CC(=O)c1cc2cc(Br)ccc2oc1=O", "growth inhibition [%]": 14.4}
{"compound": "OCC1OC(n2nc(-c3ccccc3)nc2-c2cnccn2)C(O)C(O)C1O (centres undefined)", "growth inhibition [%]": -46.1}
{"compound": "O=C1CC2(C(=O)N1CN1CCOCC1)c1ccccc1-c1ccccc12", "growth inhibition [%]": 4.05}
{"compound": "Cc1ccc(C(O)/C(=N/N)c2nc3ccc([N+](=O)[O-])cc3[nH]c2=O)cc1 (centres undefined)", "growth inhibition [%]": -9.4}
{"compound": "O=S(=O)(Nc1c(Cl)c(Cl)c(NS(=O)(=O)c2ccccc2)c(Cl)c1Cl)c1ccccc1", "growth inhibition [%]": 4.55}
{"compound": "O=C(CCCCCCC(=O)C[N+]12CCC(CC1)C(O)C2)C[N+]12CCC(CC1)C(O)C2 (centres undefined)", "growth inhibition [%]": 3.6}
{"compound": "COc1ccc(NC(=O)C/C(C)=C2/C(=O)NN(c3ccccc3)C2=O)cc1", "growth inhibition [%]": 19.1}
{"compound": "CC(C)N(CCn1c2c3ccccc3ccc2c2oc(=O)c3ccccc3c21)C(C)C", "growth inhibition [%]": -2.95}
{"compound": "CCOC(=O)NC(NC(=O)OCC)c1ccc(Cl)cc1Cl", "growth inhibition [%]": 7.2}
{"compound": "CN(C)C(=O)Nc1cccc(OC(=O)NC2CCCCCCC2)c1", "growth inhibition [%]": 34.4}
{"compound": "O=C(O)c1c(Cl)ccc(F)c1Cl", "growth inhibition [%]": 11.3}
{"compound": "c1ccc(-c2nnc(-c3ccccn3)c3c2C[C@@H]2C[C@@H]4Cc5c(-c6ccccn6)nnc(-c6ccccn6)c5[C@@H]4[C@H]32)nc1", "growth inhibition [%]": 10.3}
{"compound": "O=C(O)CCCCCCCCCC(=O)O", "growth inhibition [%]": -7.7}
{"compound": "COc1cccc(N=Cc2ccc(C=Nc3cccc(OC)c3)cc2)c1", "growth inhibition [%]": 27.7}
{"compound": "CCOc1ccc(C2OCC(C)O2)cc1OC (centres undefined)", "growth inhibition [%]": -0.5}
{"compound": "OC(CC1CCCCN1)c1cc2c(Cl)cc(Cl)cc2c2cc(C(F)(F)F)ccc12 (centres undefined)", "growth inhibition [%]": 98.8}
{"compound": "C[C@@]1(N2C(=O)OC(c3ccccc3)C2=O)C(=O)N2CCS[C@@]21c1ccccc1 (some centres undefined)", "growth inhibition [%]": 5.85}
{"compound": "O=c1c2ccccc2oc2cc([N+](=O)[O-])cc([N+](=O)[O-])c12", "growth inhibition [%]": 0.9}
{"compound": "O=C(c1ccccc1)C(c1ccccc1)S(=O)(=O)N1CCOCC1 (centres undefined)", "growth inhibition [%]": -11.6}
{"compound": "CC(C)CCC[C@@H](C)[C@H]1CC[C@H]2[C@@H]3CC[C@H]4OC(=O)CC[C@]4(C)[C@H]3CC[C@]12C", "growth inhibition [%]": -27.7}
